// provenance: patent US20210388087A1

testedOn: T1, Human CD3eg linker (human)
T1 construct: Single chain: epsilon and gamma subunits of human CD3 joined by a 29-mer linker, Flag-tag at the C-terminus; also called recombinant human CD3
T1 chain: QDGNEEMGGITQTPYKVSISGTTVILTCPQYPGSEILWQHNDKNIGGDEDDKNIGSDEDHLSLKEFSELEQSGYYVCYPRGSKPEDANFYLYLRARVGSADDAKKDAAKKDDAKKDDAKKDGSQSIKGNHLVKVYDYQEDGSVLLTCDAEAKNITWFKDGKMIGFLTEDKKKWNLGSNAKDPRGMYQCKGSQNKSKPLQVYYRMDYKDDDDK
experimentNotes: Biacore SPR, vs template H183/L072
testReadout: fold change of affinity (fold)
API: value field is a number in fold; no unit string.

binder | outputUnit | fold change of affinity
H183/L072 VH V100cI (antibody, name in Kabat numbering, V domains shown) VH: QVQLVESGGGLVQPGRSLRLSCAASGFTFSNAWMHWVRQAPGKGLEWVAQIKDKGNAYAAYYAPSVKGRFTISRDDSKNSIYLQMNSLKTEDTAVYYCHYVHYASASTILPAFGVDAWGQGTTVTVSS VL: DIVMTQSPLSLPVTPGEPASISCQASQELVHMNRNTYLHWYQQKPGQAPRLLIYKVSNRFPGVPDRFSGSGSGTDFTLKISRVEAEDVGVYYCAQGTSVPFTFGQGTKLEIK | fold | 1

Here is the next item to consider.
Request: Which value of fold change of affinity has been reported for H183/L072 VH S99A (antibody, name in Kabat numbering, V domains shown) VH: QVQLVESGGGLVQPGRSLRLSCAASGFTFSNAWMHWVRQAPGKGLEWVAQIKDKGNAYAAYYAPSVKGRFTISRDDSKNSIYLQMNSLKTEDTAVYYCHYVHYAAASTVLPAFGVDAWGQGTTVTVSS VL: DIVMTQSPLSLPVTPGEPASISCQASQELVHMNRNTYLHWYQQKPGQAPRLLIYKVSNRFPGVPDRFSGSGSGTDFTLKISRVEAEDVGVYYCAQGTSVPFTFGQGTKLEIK in the records?
Response: 1
